The entries below come with measured IC50 values attached.
# TARGET UNDER TEST: HIV-1 reverse transcriptase (Human immunodeficiency virus type 1 group M subtype B, UniProt P04585)
# Construct: recombinant HIV-1 reverse transcriptase
# PROTOCOL SUMMARY: Reverse transcriptase enzyme assay
# Type: biochemical
MEASUREMENT LABEL: IC50

{"COMPOUND STRUCTURE STRING": "Cc1ccc(S(=O)(=O)Nn2sc3ccccc3c2=O)cc1", "REPORTED": "> 30 µM"}
{"COMPOUND STRUCTURE STRING": "O=c1c2ccc(Cl)cc2sn1NS(=O)(=O)c1ccccc1Cl", "REPORTED": "> 30 µM"}

====

# TARGET UNDER TEST: HIV-1 reverse transcriptase (Human immunodeficiency virus type 1 group M subtype B, UniProt P04585)
# Construct: recombinant HIV-1 reverse transcriptase
# PROTOCOL SUMMARY: Reverse transcriptase enzyme assay
# Format: biochemical
# CONDITION NOTES: virion-associated RT
MEASUREMENT LABEL: IC50

{"COMPOUND STRUCTURE STRING": "O=c1c2ccccc2sn1NS(=O)(=O)c1ccccc1", "REPORTED": "> 30 µM"}

====

# Test system: HIV-1 EFVR (K103R + V179D + P225H)
# PROTOCOL SUMMARY: Inhibition of virus-induced cytopathogenicity in MT-4 cells, NNRTI-resistant mutant EFVR
# Format: cell-based
# CONDITION NOTES: Human immunodeficiency virus 1, MT4, read-out: EC50 EFVR
pEC50: −log10 of the molar value.

{"MOLECULE": "COc1ccc(S(=O)(=O)Nn2sc3ccccc3c2=O)cc1", "TARGET UNDER TEST": "HIV-1 EFVR (K103R + V179D + P225H)", "pEC50": 5.22}
{"MOLECULE": "Cc1ccc2sn(NS(=O)(=O)c3ccccc3Cl)c(=O)c2c1", "TARGET UNDER TEST": "HIV-1 EFVR (K103R + V179D + P225H)", "pEC50": 5.30}
{"MOLECULE": "O=c1c2ccccc2sn1N(S(=O)(=O)c1ccc(F)cc1)S(=O)(=O)c1ccc(F)cc1", "TARGET UNDER TEST": "HIV-1 EFVR (K103R + V179D + P225H)", "pEC50": 4.60}
{"MOLECULE": "Cc1cn([C@H]2C[C@H](N=[N+]=[N-])[C@@H](CO)O2)c(=O)[nH]c1=O [AZT, azidothymidine, reference compound]", "TARGET UNDER TEST": "HIV-1 EFVR (K103R + V179D + P225H)", "pEC50": 8.00}
{"MOLECULE": "CC(C)(C)NC(=O)[C@@H]1C[C@@H]2CCCC[C@@H]2CN1C[C@@H](O)[C@H](Cc1ccccc1)NC(=O)[C@H](CC(N)=O)NC(=O)c1ccc2ccccc2n1 [SAQ, saquinavir, reference compound]", "TARGET UNDER TEST": "HIV-1 EFVR (K103R + V179D + P225H)", "pEC50": 8.00}
{"MOLECULE": "O=c1c2cc(Cl)ccc2sn1NS(=O)(=O)c1ccccc1Cl", "TARGET UNDER TEST": "HIV-1 EFVR (K103R + V179D + P225H)", "pEC50": 5.15}
{"MOLECULE": "O=c1c2ccc(Cl)cc2sn1NS(=O)(=O)c1ccccc1Cl", "TARGET UNDER TEST": "HIV-1 EFVR (K103R + V179D + P225H)", "pEC50": 5.15}
